molecular target: Mitogen-activated protein kinase 10 (Homo sapiens); assay: Inhibition of MAPK10 at 10 uM after 60 mins by TR-FRET assay
Sequence (P53779 whole entry): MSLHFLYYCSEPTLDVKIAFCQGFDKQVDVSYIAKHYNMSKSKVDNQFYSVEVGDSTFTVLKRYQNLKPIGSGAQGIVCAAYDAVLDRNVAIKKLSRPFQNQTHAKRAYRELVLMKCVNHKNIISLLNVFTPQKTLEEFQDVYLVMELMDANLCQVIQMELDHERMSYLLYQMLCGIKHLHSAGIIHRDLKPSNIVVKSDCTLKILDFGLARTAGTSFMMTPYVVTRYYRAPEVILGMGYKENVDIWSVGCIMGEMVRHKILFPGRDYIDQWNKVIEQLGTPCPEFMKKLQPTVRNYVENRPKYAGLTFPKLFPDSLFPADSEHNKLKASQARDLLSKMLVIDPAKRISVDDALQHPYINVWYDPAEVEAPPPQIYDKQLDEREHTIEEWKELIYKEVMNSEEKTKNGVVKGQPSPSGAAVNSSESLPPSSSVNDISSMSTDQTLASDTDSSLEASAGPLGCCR
# binarize inhibition: threshold 80% inclusive, high side yes (1), low side no (0)

{"columns": ["test.smiles", "class.name"],
 "data": [
  ["O=c1n(C2CCOCC2)nc(-c2ccnc(NC3CCCCC3)c2)n1-c1ccc2ccccc2c1", "yes (1)"],
  ["O=c1n(Cc2ccccn2)nc(-c2ccnc(NC3CCOCC3)c2)n1-c1ccc2ccccc2c1", "no (0)"],
  ["O=c1[nH]nc(-c2ccnc(NC3CCOCC3)c2)n1-c1ccc2ccccc2c1", "no (0)"],
  ["O=c1n(Cc2ccncc2)nc(-c2ccnc(NC3CCCCC3)c2)n1-c1ccc2ccccc2c1", "no (0)"],
  ["O=c1[nH]nc(-c2ccnc(NC3CCCCC3)c2)n1-c1ccc2ccccc2c1", "no (0)"]
]}
